- assay-protocol: growth inhibition of GSK3B-pretreated HCT116 cells – cell-based, CellTiter-Glo, 0.2 to 20 µM (AID 1117336)
- condition-description: HCT116 viability after GSK3B inhibitor, at 20 µM, active compounds read high
readout-label: viability decrease (%)
Answers are plain numbers, in %.

Examples with answers:
>>> result("CC1=C(/C=C/C(C)=C/C=C/C(C)=C/C(=O)Nc2ccc(O)cc2)C(C)(C)CCC1")
98.8
>>> result("CCC(=O)c1ccc(O)cc1")
8.05
>>> result("O=C(OC1C[C@H]2CC[C@@H](C1)[N+]21CCCC1)C(O)(c1ccccc1)c1ccccc1 (stereo not given in full)")
-50.2
>>> result("COP(=O)(OC)OC(c1ccc(Cl)cc1)P(=O)(OC)OC (stereo not given)")
-3.65

For the compound NC(=O)C(c1ccccc1)(c1ccccc1)[C@@H]1CCN(CCc2ccc3c(c2)CCO3)C1 , what viability decrease is on record?
-129
